Reference source for all entries: PubChem BioAssay

experiment: mitochondrial membrane potential change in A549 cells, profiling panel, cell-based, JC-1 fluorescence, basal, 24 h, 100 nL (AID 1138); conditions: higher = more signal;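 note: A549 lung adenocarcinoma cells under basal conditions with no added stimulus; test concentration not given here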
z-score vs 0.1: at or above is criterion met, below is criterion not met.

In plain terms: is recorded z-score at least 0.1 for COCCCNC(=O)[C@]1(CCC(=O)OC(C)(C)C)N=C(c2ccc(OCCCO)cc2)O[C@@H]1c1ccccc1N=[N+]=[N-] ?
criterion met

In plain terms: is recorded z-score at least 0.1 for O=C(NN=C1C[C@@H](O)[C@@H](O)[C@@H]2[C@@H]3C(=O)N(c4ccc(F)cc4F)C(=O)[C@@H]3CC[C@@H]12)OCc1ccccc1 ?
criterion not met

In plain terms: is recorded z-score at least 0.1 for C[C@H](c1ccccc1)N1C(=O)[C@H]2[C@H]3[C@H](O)[C@H](O)CC(=O)[C@@H]3CC[C@H]2C1=O ?
criterion met

In plain terms: is recorded z-score at least 0.1 for O=C(CS)NCCCCCNC(=O)[C@H]1C[C@H]2C(=O)N3CCC[C@H]3C(=O)N2[C@H]1c1cccc(OCCO)c1 ?
criterion met

In plain terms: is recorded z-score at least 0.1 for O=C(CS)NCCCCCNC(=O)[C@@H]1C[C@@H]2C(=O)N[C@@H](Cc3ccccc3)C(=O)N2[C@@H]1c1ccc(O)cc1 ?
criterion not met

In plain terms: is recorded z-score at least 0.1 for CCOC(=O)[C@H](CC(C)C)NC(=O)CCC1CC(OC(=O)NCc2cccc3ccccc23)CC2(CCCC(COC(=O)NCCc3ccccc3OC)O2)O1 (stereo partly specified) ?
criterion not met

In plain terms: is recorded z-score at least 0.1 for CC(C)CN1CCc2nc(-c3ccccc3)c3c(c2CC1)CO[C@@H](C)C3 ?
criterion met

In plain terms: is recorded z-score at least 0.1 for COCCCNC(=O)[C@]1(Cc2ccccc2)N=C(c2ccc(OCCCO)cc2)O[C@@H]1c1ccccc1 ?
criterion met

In plain terms: is recorded z-score at least 0.1 for COC(=O)[C@H]1COC(c2ccc(OCCCO)cc2)=N1 ?
criterion not met

In plain terms: is recorded z-score at least 0.1 for O=C1[C@H]2[C@H]3[C@H](O)[C@H](O)CC(=NOCc4ccccc4)[C@H]3CC[C@H]2C(=O)N1C[C@@H]1CCCO1 ?
criterion not met

In plain terms: is recorded z-score at least 0.1 for CC(C)CON=C1C[C@@H](O)[C@@H](O)[C@@H]2[C@@H]3C(=O)N(Cc4ccccc4)C(=O)[C@@H]3CC[C@@H]12 ?
criterion not met

In plain terms: is recorded z-score at least 0.1 for CCOC(=O)NN=C1C[C@@H](O)[C@@H](O)[C@@H]2[C@@H]3C(=O)N(C[C@@H]4CCCO4)C(=O)[C@@H]3CC[C@@H]12 ?
criterion met

In plain terms: is recorded z-score at least 0.1 for COC(=O)CC=C[C@H](C)[C@@H](OCc1ccccc1Br)C(C)C ?
criterion met

In plain terms: is recorded z-score at least 0.1 for CC(CCN1CCc2nc(-c3ccccc3)c(-c3ccccc3)cc2C1)=NO[C@@H](C)c1cn([C@H](CO)Cc2ccccc2)nn1 ?
criterion met

In plain terms: is recorded z-score at least 0.1 for CC(CCN1CCc2nc(-c3ccccc3)c(-c3ccccc3)cc2C1)=NOC[C@@H](C)[C@H](OCc1ccccc1)C(C)C ?
criterion met

In plain terms: is recorded z-score at least 0.1 for C[C@@H]1C=CCC(=O)OC[C@H](C)C(=O)N2CCC[C@H]2C(=O)OC1 ?
criterion not met

In plain terms: is recorded z-score at least 0.1 for C[C@@H]1C=CCC(=O)OC[C@H](C)C(=O)N[C@@H](C)C(=O)OC1 ?
criterion not met

In plain terms: is recorded z-score at least 0.1 for CC(C)c1ccc(NN2C(C(O)c3ccc4c(c3)OCO4)C=CC3C(=O)N(c4ccccc4)C(=O)C32)cc1 (stereo unspecified) ?
criterion not met

In plain terms: is recorded z-score at least 0.1 for COc1ccc(-c2ccc3c(n2)CCCN3CC(O)CN2CCCc3nc(C)c(C)cc32)cc1 (stereo unspecified) ?
criterion met

In plain terms: is recorded z-score at least 0.1 for O=C1C[C@@H](O)[C@@H](O)[C@@H]2[C@@H]3C(=O)N(c4ccc(F)cc4F)C(=O)[C@@H]3CC[C@@H]12 ?
criterion met

In plain terms: is recorded z-score at least 0.1 for CC(C)=NOCc1ccc(-c2cc(-c3ccccc3)no2)cc1 ?
criterion not met

In plain terms: is recorded z-score at least 0.1 for C[C@H]1Cc2c(-c3ccccc3)nc3c(c2CO1)CN(CCOc1ccccc1)CC3 ?
criterion met

In plain terms: is recorded z-score at least 0.1 for CC(C)C[C@@H]1NC(=O)[C@H]2C[C@@H](C(=O)O)[C@@H](c3ccc(O)cc3)N2C1=O ?
criterion not met

In plain terms: is recorded z-score at least 0.1 for O=C1O[C@@H](c2ccccc2)[C@@H](c2ccccc2)N2[C@@H](c3ccc(OCCO)cc3)[C@]3(C(=O)Nc4ccccc43)[C@@H](C(=O)N3CCN(c4ncccn4)CC3)[C@H]12 ?
criterion not met

In plain terms: is recorded z-score at least 0.1 for COc1ccc([Si](C)(C)[C@@H]2[C@@H](CCO)O[C@]3(C(=O)N(Cc4ccc(NC(C)=O)cc4)c4ccccc43)[C@H]2C)cc1 ?
criterion not met

In plain terms: is recorded z-score at least 0.1 for CCOC(=O)[C@H](Cc1ccccc1)NC(=O)CCC1CC(OC(=O)NCc2ccc3c(c2)OCO3)CC2(CCCC(COC(=O)NCc3ccccc3)O2)O1 (stereo partly specified) ?
criterion met

In plain terms: is recorded z-score at least 0.1 for CCc1cccc(NC(=O)O[C@H]2[C@H](OC(=O)Nc3ccc4c(c3)OCO4)[C@@H](OC(=O)Nc3ccc4c(c3)OCO4)[C@@H](OC)O[C@@H]2CO)c1 ?
criterion not met

In plain terms: is recorded z-score at least 0.1 for COCCCNC(=O)[C@@]1(Sc2ccc(C)cc2)CC(=O)N(Cc2ccccc2)[C@@H]1c1ccc(CO)cc1I ?
criterion met

In plain terms: is recorded z-score at least 0.1 for CCCNC(=O)OC[C@H]1O[C@H](CCON=C[C@@H](OC)[C@H](C)C=CCC(=O)OC)C=C[C@@H]1Oc1ccc(OC)cc1 ?
criterion met

In plain terms: is recorded z-score at least 0.1 for Cc1ccc(S(=O)(=O)N[C@@H]2COC(=O)[C@H](C)COC(=O)CC=C[C@H]2C)cc1 ?
criterion met

In plain terms: is recorded z-score at least 0.1 for CC(C)(C)OC(=O)CC[C@]1(C(=O)NCc2ccccc2)N=C(c2ccc(OCCCO)cc2)O[C@H]1c1ccccc1 ?
criterion met
